# Experimental Details: activity coefficient (dimensionless); of the first substance listed, at infinite dilution; xn = mol fraction of the nth substance listed
# Settings: 323.15 K; Liquid; Chromatography; x1 = 0
Reported Property: activity coefficient

O=C1CCCCC1 [cyclohexanone] + CCCCn1cc[n+](C)c1.F[B-](F)(F)F : 2.64
CCC(C)O (centres undefined) [butan-2-ol] + CCCCn1cc[n+](C)c1.F[B-](F)(F)F : 3.12

(1) CCCCCO [pentan-1-ol] + CCCCn1cc[n+](C)c1.F[B-](F)(F)F
(2) CCCCO [butan-1-ol] + CCCCn1cc[n+](C)c1.F[B-](F)(F)F
(3) CC(C)O [propan-2-ol] + CCCCn1cc[n+](C)c1.F[B-](F)(F)F
(4) CCO [ethanol] + CCCCn1cc[n+](C)c1.F[B-](F)(F)F
Q: Rank items: key activity coefficient, increasing. List labels; respect the requested ordering.
Result: 4, 3, 2, 1
(4: 1.27, 3: 1.86, 2: 3.3, 1: 5.15)

---

# Experimental Details: activity coefficient (dimensionless); of the first substance listed, at infinite dilution; xn = mol fraction of the nth substance listed
# Settings: 343.15 K; Liquid; Chromatography; x1 = 0
Reported Property: activity coefficient

Worked cases, activity coefficient given:
CCCCO [butan-1-ol] + CCCCn1cc[n+](C)c1.F[B-](F)(F)F : 2.72
ClC(Cl)(Cl)Cl [tetrachloromethane] + CCCCn1cc[n+](C)c1.F[B-](F)(F)F : 6.52
CC(C)CCO [3-methylbutan-1-ol] + CCCCn1cc[n+](C)c1.F[B-](F)(F)F : 4.08
CC(C)CO [2-methyl-1-propanol] + CCCCn1cc[n+](C)c1.F[B-](F)(F)F : 1.53
CC(C)=O [acetone] + CCCCn1cc[n+](C)c1.F[B-](F)(F)F : 1.25
O=C1CCCCC1 [cyclohexanone] + CCCCn1cc[n+](C)c1.F[B-](F)(F)F : 2.61

(A) CC#N [acetonitrile] + CCCCn1cc[n+](C)c1.F[B-](F)(F)F
(B) CCOC(C)=O [ethyl acetate] + CCCCn1cc[n+](C)c1.F[B-](F)(F)F
(C) ClC(Cl)Cl [trichloromethane] + CCCCn1cc[n+](C)c1.F[B-](F)(F)F
Q: Rank items: key activity coefficient, increasing. List labels; respect the requested ordering.
Result: A, C, B
(A: 0.768, C: 1.43, B: 3.41)

---

# Experimental Details: activity coefficient (dimensionless); of the first substance listed, at infinite dilution; xn = mol fraction of the nth substance listed
# Settings: 303.15 K; Liquid; Chromatography; x1 = 0
Reported Property: activity coefficient

CCCO [propan-1-ol] + CCCCn1cc[n+](C)c1.F[B-](F)(F)F : 2.8
CC(C)O [propan-2-ol] + CCCCn1cc[n+](C)c1.F[B-](F)(F)F : 2.63
CCCCO [butan-1-ol] + CCCCn1cc[n+](C)c1.F[B-](F)(F)F : 4.14
CC(C)=O [acetone] + CCCCn1cc[n+](C)c1.F[B-](F)(F)F : 1.16
ClCCl [dichloromethane] + CCCCn1cc[n+](C)c1.F[B-](F)(F)F : 1.1

(P) CC(C)CCO [3-methylbutan-1-ol] + CCCCn1cc[n+](C)c1.F[B-](F)(F)F
(Q) CCC(C)O (centres undefined) [butan-2-ol] + CCCCn1cc[n+](C)c1.F[B-](F)(F)F
(R) C1COCCO1 [1,4-dioxane] + CCCCn1cc[n+](C)c1.F[B-](F)(F)F
Q: Place the items in sequence of falling activity coefficient. List labels; respect the requested ordering.
Result: P, Q, R
(P: 6.63, Q: 3.85, R: 1.53)
